molecular target: IRAK4 (Homo sapiens); construct: purchased Signalchem I12-10G-20; assay: IRAK4 Z'-LYTE assay; format: biochemical; conditions: n = 1
Sequence (Q9NWZ3 whole entry): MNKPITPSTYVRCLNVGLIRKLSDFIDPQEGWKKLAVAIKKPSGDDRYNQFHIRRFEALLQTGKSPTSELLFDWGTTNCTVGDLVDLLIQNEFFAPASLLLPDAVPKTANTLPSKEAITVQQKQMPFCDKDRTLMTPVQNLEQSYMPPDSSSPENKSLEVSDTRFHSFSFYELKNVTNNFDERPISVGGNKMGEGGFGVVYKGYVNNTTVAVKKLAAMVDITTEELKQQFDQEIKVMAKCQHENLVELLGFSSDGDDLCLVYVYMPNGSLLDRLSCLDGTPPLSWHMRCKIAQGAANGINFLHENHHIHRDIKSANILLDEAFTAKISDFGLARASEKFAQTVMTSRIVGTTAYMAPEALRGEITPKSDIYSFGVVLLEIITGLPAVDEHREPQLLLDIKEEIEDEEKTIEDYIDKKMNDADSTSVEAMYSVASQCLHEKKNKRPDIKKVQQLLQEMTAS
Each entry below carries its recorded IC50.
RESULT TYPE: IC50

{"COMPOUND": "CCO[C@H]1CC[C@H](n2cc(NC(=O)c3csc(-c4cn[nH]c4)n3)c(-c3ncccn3)n2)CC1", "RESULT TYPE": "IC50", "VALUE OBSERVED": "6 nM"}
{"COMPOUND": "CCO[C@H]1CC[C@H](n2cc(NC(=O)c3csc(-c4cn[nH]c4)n3)c(-c3nc(F)ccc3F)n2)CC1 [Comparison-1, reference compound]", "RESULT TYPE": "IC50", "VALUE OBSERVED": "15 nM"}
